# measurementSetup: in acetonitrile, 303.15 K
measurementKind: solubility (mole fraction)

Prompt: Respond only with solubility (mole fraction) recorded for `NC(=O)N/N=C/c1ccc([N+](=O)[O-])o1`
Response: 0.000211

---

# measurementSetup: in n-propanol, 278.15 K
measurementKind: solubility (mole fraction)

Prompt: Respond only with solubility (mole fraction) recorded for `NC(=O)N/N=C/c1ccc([N+](=O)[O-])o1`
Response: 8.53e-05

---

# measurementSetup: in water, 278.15 K
measurementKind: solubility (mole fraction)
Just the number.

Prompt: Respond only with solubility (mole fraction) recorded for `NC(=O)N/N=C/c1ccc([N+](=O)[O-])o1`
Response: 1.31e-05

---

# measurementSetup: in acetonitrile, 283.15 K
measurementKind: solubility (mole fraction)
Just the number.

Prompt: Respond only with solubility (mole fraction) recorded for `NC(=O)N/N=C/c1ccc([N+](=O)[O-])o1`
Response: 0.000103

---

# measurementSetup: in DMF, 288.15 K
measurementKind: solubility (mole fraction)
Just the number.

Prompt: Respond only with solubility (mole fraction) recorded for `NC(=O)N/N=C/c1ccc([N+](=O)[O-])o1`
Response: 0.0235

---

# measurementSetup: in water, 313.15 K
measurementKind: solubility (mole fraction)
Just the number.

Prompt: Respond only with solubility (mole fraction) recorded for `NC(=O)N/N=C/c1ccc([N+](=O)[O-])o1`
Response: 5.89e-05

---

# measurementSetup: in methanol, 288.15 K
measurementKind: solubility (mole fraction)
Just the number.

Prompt: Respond only with solubility (mole fraction) recorded for `NC(=O)N/N=C/c1ccc([N+](=O)[O-])o1`
Response: 0.000201

---

# measurementSetup: in isopropanol, 308.15 K
measurementKind: solubility (mole fraction)
Just the number.

Prompt: Respond only with solubility (mole fraction) recorded for `NC(=O)N/N=C/c1ccc([N+](=O)[O-])o1`
Response: 0.000262

---

# measurementSetup: in DMF, 293.15 K
measurementKind: solubility (mole fraction)
Just the number.

Prompt: Respond only with solubility (mole fraction) recorded for `NC(=O)N/N=C/c1ccc([N+](=O)[O-])o1`
Response: 0.0246

---

# measurementSetup: in ethanol, 308.15 K
measurementKind: solubility (mole fraction)

Prompt: Respond only with solubility (mole fraction) recorded for `NC(=O)N/N=C/c1ccc([N+](=O)[O-])o1`
Response: 0.000213

---

# measurementSetup: in acetone, 298.15 K
measurementKind: solubility (mole fraction)
Just the number.

Prompt: Respond only with solubility (mole fraction) recorded for `NC(=O)N/N=C/c1ccc([N+](=O)[O-])o1`
Response: 0.000512

---

# measurementSetup: in methanol, 283.15 K
measurementKind: solubility (mole fraction)
Just the number.

Prompt: Respond only with solubility (mole fraction) recorded for `NC(=O)N/N=C/c1ccc([N+](=O)[O-])o1`
Response: 0.000172

---

# measurementSetup: in ethanol, 293.15 K
measurementKind: solubility (mole fraction)
Just the number.

Prompt: Respond only with solubility (mole fraction) recorded for `NC(=O)N/N=C/c1ccc([N+](=O)[O-])o1`
Response: 0.000121

---

# measurementSetup: in ethanol, 288.15 K
measurementKind: solubility (mole fraction)
Just the number.

Prompt: Respond only with solubility (mole fraction) recorded for `NC(=O)N/N=C/c1ccc([N+](=O)[O-])o1`
Response: 0.0001

---

# measurementSetup: in n-propanol, 303.15 K
measurementKind: solubility (mole fraction)
Just the number.

Prompt: Respond only with solubility (mole fraction) recorded for `NC(=O)N/N=C/c1ccc([N+](=O)[O-])o1`
Response: 0.000236
